Experiment: ATG_Oct_MLP_CIS: Attagene CIS-FACTORIAL HepG2 Assay for human Octamer-Binding Transcription Factor (Oct) (AID 2282993)
Conditions: HepG2 Attagene cis-factorial Oct reporter, mRNA; actives raise or lower the signal
Calls of active or inactive are those of the source. The calls were made as follows: active = hit-call score of the fitted dose curve at least 0.9, where 1 is the maximum; inactive = score below 0.9.
Possible outcomes: y = active, n = inactive

>  <compound>
CC(=O)C(C)O (stereo not given)

>  <classification>
n

$$$$
>  <compound>
COc1cccc(OC)c1O

>  <classification>
n

$$$$
>  <compound>
NCCNc1cccc2ccccc12

>  <classification>
y

$$$$
>  <compound>
OCc1cccc(Oc2ccccc2)c1

>  <classification>
n

$$$$
>  <compound>
O=C(O)COCC(=O)O

>  <classification>
n

$$$$
>  <compound>
CC1(C)C2=CCCC(C)(C)[C@]23CC[C@H]1C3

>  <classification>
n

$$$$
>  <compound>
CC/C=C\CCOC(=O)CC

>  <classification>
n

$$$$
>  <compound>
CS(=O)(=O)c1ccc(Cl)cc1

>  <classification>
n

$$$$
>  <compound>
CC1=C(Br)C(=O)C(Br)=C/C1=C(/c1ccccc1S(=O)(=O)O)c1cc(Br)c(O)c(Br)c1C

>  <classification>
n

$$$$
>  <compound>
COC(C)(C)CCO

>  <classification>
n

$$$$
>  <compound>
OCCOCCN1CCN(C2=Nc3ccccc3Sc3ccccc32)CC1

>  <classification>
n

$$$$
>  <compound>
COC(CC(C)CCCC(C)(C)O)OC (stereo not given)

>  <classification>
n

$$$$
>  <compound>
O=[N+]([O-])c1ccc(O)cc1C(F)(F)F

>  <classification>
y

$$$$
>  <compound>
CC(Oc1cc(Cl)ccc1Cl)C(=O)O (stereo not given)

>  <classification>
n

$$$$
>  <compound>
CCCCCCOC(=O)C(C)C

>  <classification>
n

$$$$
